Exercise: state measured inhibition at 30 µM for each of the compounds provided.
# Target under test: PDE-4A1A (Homo sapiens, UniProt P27815)
# Construct: purchased Sigma SRP0262
# Sequence (P27815 1-647 isoform P27815-4): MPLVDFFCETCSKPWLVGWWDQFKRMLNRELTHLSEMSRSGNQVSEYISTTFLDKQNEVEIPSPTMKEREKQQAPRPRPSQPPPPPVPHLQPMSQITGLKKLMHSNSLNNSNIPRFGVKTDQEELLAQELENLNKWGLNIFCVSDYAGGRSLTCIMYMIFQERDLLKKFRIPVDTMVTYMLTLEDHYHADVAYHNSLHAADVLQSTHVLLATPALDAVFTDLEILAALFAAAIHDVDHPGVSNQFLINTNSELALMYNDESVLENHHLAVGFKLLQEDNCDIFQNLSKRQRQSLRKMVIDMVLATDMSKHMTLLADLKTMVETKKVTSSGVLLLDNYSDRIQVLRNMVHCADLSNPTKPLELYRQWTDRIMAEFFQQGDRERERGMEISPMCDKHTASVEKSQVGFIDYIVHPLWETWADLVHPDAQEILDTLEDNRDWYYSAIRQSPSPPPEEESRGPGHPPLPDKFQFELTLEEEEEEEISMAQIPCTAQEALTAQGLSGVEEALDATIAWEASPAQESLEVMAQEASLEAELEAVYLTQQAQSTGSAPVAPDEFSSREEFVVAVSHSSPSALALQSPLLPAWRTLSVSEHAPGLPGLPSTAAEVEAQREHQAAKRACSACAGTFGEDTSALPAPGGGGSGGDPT
# Method summary: PDE-41A assay (Compounds of Formula II), AMP-Glo
# Assay type: biochemical
Report only the number, with the unit % understood.

# lookup: inhibition at 30 µM of COc1ccc([C@@]23C=C[C@@H](OC(=O)c4ccc[nH]4)C[C@@H]2N(C)CC3)cc1OC [Compound 61] 94

Can you share its inhibition at 30 µM? I mean this compound: COc1ccc([C@@]23C=C[C@@H](OC(=O)C(C)C)C[C@@H]2N(C)CC3)cc1OC [Compound 59] 100

Given the compound CCC(=O)O[C@@H]1C=C[C@@]2(c3ccc(OC)c(OC)c3)CCN(C)[C@H]2C1 [Compound 58] , what is its reported inhibition at 30 µM? 103

Please report the recorded inhibition at 30 µM for COc1ccc([C@@]23CC[C@@H](OC(=O)CN)C[C@@H]2N(C)CC3)cc1OC [Compound 48] . -8

Recorded values, source patent US20250091992A1.
